Assay: Cytotoxicity in LNCaP cells
Type: cell-based
Conditions: human
Structures can show the parent of a compound that is named as a salt.
reported-metric: pIC50
Hey, just a heads up that pIC50 is the negative log base 10 of the concentration in molar.

Exercise: Which pIC50 value belongs to CC(C)OC(=O)OCOP(=O)(CO[C@H](C)Cn1cnc2c(N)ncnc21)OCOC(=O)OC(C)C [Tenofovir disoproxil fumarate] ?
Key: 4.06

====

Assay: Cytotoxicity in PG-4 cells (XTT, TC50)
Format: cell-based, feline
Conditions: cat, PG-4 TC50
reported-metric: CC50 (nM)
Numeric answer only, unit nM assumed.

Exercise: Which CC50 value belongs to CC(C)(C)NC(=O)[C@@H]1CN(Cc2cccnc2)CCN1C[C@@H](O)C[C@@H](Cc1ccccc1)C(=O)N[C@H]1c2ccccc2C[C@H]1O ?
Key: 2200
